Where do these numbers come from? They come from the supplement of paper PMC11451515.

# AUC of viability dose-response curve values compiled below
Test system: P12-Ichikawa
TEST SUMMARY: AUC of viability dose-response curve (% viability x log10 dose units); higher = less sensitive
REPORTED CONDITIONS: HPLM + 10% dialyzed FBS; 48 h

# annotated cases, reported AUC of viability dose-response curve shown
MOLECULE	TESTED TARGET	AUC of viability dose-response curve
O=C(c1ccc(/C=C/c2n[nH]c3ccccc23)cc1)N1CCNCC1	P12-Ichikawa	332
CC(C)(C)Cn1c(N)nc2ccc(-c3[nH]c(C(C)(C)C)nc3-c3ccc(F)cc3)nc21	P12-Ichikawa	422
OC(CCN1CCCCC1)(C2CC\3CC2\C=C3)C4=CC=CC=C4 (stereo not drawn)	P12-Ichikawa	463
C[C@H]1[C@H](O)O[C@@H]2O[C@@]3(C)CC[C@H]4[C@H](C)CC[C@@H]1[C@@]24OO3	P12-Ichikawa	386
CCOc1cc(/C=C2/C(=O)N(c3ccccc3)N=C2C)cc(Cl)c1OCC(=O)OC	P12-Ichikawa	424
CN1C(=O)CCS(=O)(=O)C1c1ccc(Cl)cc1 (stereo not drawn)	P12-Ichikawa	452
CO[C@H]1/C=C/O[C@@]2(C)Oc3c(C)c(O)c4c(O)c(c(/C=N/N5CCN(C)CC5)c(O)c4c3C2=O)NC(=O)/C(C)=C\C=C\[C@H](C)[C@H](O)[C@@H](C)[C@@H](O)[C@@H](C)[C@H](OC(C)=O)[C@@H]1C	P12-Ichikawa	441
O=P1(N(CCCl)CCCl)NCCCO1 (stereo not drawn)	P12-Ichikawa	409
NCCCCCC(=O)O	P12-Ichikawa	463
O=C(/C=C/C=C/c1ccc2c(c1)OCO2)N1CCCCC1	P12-Ichikawa	446

Request: Can you share its AUC of viability dose-response curve? I mean this molecule: "O=C(C[C@@H]1C/C=C\CCC(=O)O[C@H](c2ccccc2)CNC1=O)NCc1ccc(Cl)cc1"
Result: 452

Request: Can you share its AUC of viability dose-response curve? I mean this molecule: "CCC[C@@H](C=O)NC(=O)[C@H](CC(C)C)NC(=O)[C@H](CC(C)C)NC(=O)OCc1ccccc1"
Result: 366

Request: Can you share its AUC of viability dose-response curve? I mean this molecule: "CN(C)CC[C@H](CSc1ccccc1)Nc1ccc([S+](=O)([O-])NC(=O)c2ccc(N3CCN(Cc4ccccc4-c4ccc(Cl)cc4)CC3)cc2)cc1[N+](=O)[O-]"
Result: 321

Request: Can you share its AUC of viability dose-response curve? I mean this molecule: "CC1(C)Cc2c(sc(NC(=S)NC(=O)c3ccccc3)c2C(=O)O)CO1"
Result: 469

Request: Can you share its AUC of viability dose-response curve? I mean this molecule: "CCNC(=O)Nc1ccc(-c2nc3c(c(N4CCOC[C@@H]4C)n2)CCN(C2COC2)C3)cc1"
Result: 370

Request: Can you share its AUC of viability dose-response curve? I mean this molecule: "OCCn1cc(-c2ccc3c(c2)CC/C3=N\O)c(-c2ccncc2)n1"
Result: 444

---

Test system: P12-Ichikawa
TEST SUMMARY: cell viability relative to DMSO control; higher = less cytotoxic
REPORTED CONDITIONS: RPMI 5 mM glucose + 10% FBS; 48 h; 0.00702 µM
# cell viability values compiled below
Quick note: unit goes after the number.

# annotated cases, reported cell viability shown
> print(dat)
                                   molecule  tested.target  endpoint.label  observed.result
1                   CCCCOc1ccc(CC(=O)NO)cc1   P12-Ichikawa  cell viability             102%
2  CC1(C)Cc2c(sc(NC(=S)NC(=O)c3ccccc3)c2C(=O)O)CO1   P12-Ichikawa  cell viability             110%
3                Cn1c(=O)c2[nH]cnc2n(C)c1=O   P12-Ichikawa  cell viability             115%
4  CC(Cc1ccc(O)c(O)c1)(NN)C(=O)O (stereo not given)   P12-Ichikawa  cell viability             122%
5  O=C([O-])[C@H](CC(=O)N1C[C@H]2CCCC[C@H]2C1)Cc1ccccc1   P12-Ichikawa  cell viability             122%
6  O=C(O)CCNc1cc(N2CCc3ccccc3CC2)nc(-c2ccccn2)n1   P12-Ichikawa  cell viability             113%

Request: Can you share its cell viability? I mean this molecule: COc1nccc(-c2c(-c3ccc(F)cc3)ncn2C2CCC(O)CC2)n1 (stereo not given)
Result: 122%

Request: Can you share its cell viability? I mean this molecule: "CCOc1cc(/C=C2/C(=O)N(c3ccccc3)N=C2C)cc(Cl)c1OCC(=O)OC"
Result: 77.2%

Request: Can you share its cell viability? I mean this molecule: CCc1cccc2c3c([nH]c12)C(CC)(CC(=O)O)OCC3 (stereo not given)
Result: 106%

Request: Can you share its cell viability? I mean this molecule: "Cc1ccc(NC(=O)c2cccc(N(C)C)c2)cc1NC(=O)c1ccc(O)cc1"
Result: 120%
